measured.target: proMMP9(67-444;ΔFnII) (SEQ ID NO:5) (Homo sapiens, UniProt P14780, DEL216-390)
Construct: amino acid pairs including: 29-215/391-444, 67-215/391-444, and 20-215/391-445, respectively; start methionine (N); made in house; host or cells: E. coli BL21(DE3) RIL
Sequence (P14780 with tags, fused parts or gaps DEL216-390): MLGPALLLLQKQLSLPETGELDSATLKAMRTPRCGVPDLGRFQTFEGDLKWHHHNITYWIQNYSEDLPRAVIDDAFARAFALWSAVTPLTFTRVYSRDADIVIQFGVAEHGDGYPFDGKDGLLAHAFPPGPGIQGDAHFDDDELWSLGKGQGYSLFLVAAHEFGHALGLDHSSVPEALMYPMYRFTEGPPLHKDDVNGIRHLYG
assay.info: ThermoFluor binding assay with proMMP9(67-444;ΔFnII)
recorded.endpoint: Kd (µM)

Below, each entry is followed by its recorded Kd result.
In: Provide Kd value for the following compound: CSc1ccccc1Nc1nc(-c2sc(NC(C)=O)nc2C)cs1 [Example 33]
Out: 0.695

In: Dear colleague, please send me the reported Kd for CC(C)Oc1ccccc1Nc1nc(-c2cccnc2)cs1 [Example 15] when you can.
Out: 43.3

In: Answer with the recorded Kd for the compound listed here: COc1ccccc1Nc1nc(-c2sc(N)nc2C)cs1 [Example 68]
Out: 1.12

In: Return Kd for the following compound: COc1ccc(F)cc1Nc1nc(-c2sc(C3CCN(C)CC3)nc2C)cs1 [Example 78]
Out: 0.146

A = COc1ccccc1Nc1nc(-c2sc(N)nc2C(F)(F)F)cs1 [Example 22]
B = COc1ccc(Cl)cc1Nc1nc(-c2sc(N)nc2C)cs1 [Example 67]
C = CCOc1ccccc1Nc1nc(-c2c(C)nc3ncccn23)cs1 [Example 52]
In: Let's sort these by Kd, smallest first. Go ahead? Note for the reader: the ranking is given by listing the labels in the order requested.
Out: B, A, C
(B: 0.318 µM, A: 2.32 µM, C: 9.09 µM)
